- test.system: FGFR4(h) (Homo sapiens, UniProt P22455)
- Sequence (P22455 22-802): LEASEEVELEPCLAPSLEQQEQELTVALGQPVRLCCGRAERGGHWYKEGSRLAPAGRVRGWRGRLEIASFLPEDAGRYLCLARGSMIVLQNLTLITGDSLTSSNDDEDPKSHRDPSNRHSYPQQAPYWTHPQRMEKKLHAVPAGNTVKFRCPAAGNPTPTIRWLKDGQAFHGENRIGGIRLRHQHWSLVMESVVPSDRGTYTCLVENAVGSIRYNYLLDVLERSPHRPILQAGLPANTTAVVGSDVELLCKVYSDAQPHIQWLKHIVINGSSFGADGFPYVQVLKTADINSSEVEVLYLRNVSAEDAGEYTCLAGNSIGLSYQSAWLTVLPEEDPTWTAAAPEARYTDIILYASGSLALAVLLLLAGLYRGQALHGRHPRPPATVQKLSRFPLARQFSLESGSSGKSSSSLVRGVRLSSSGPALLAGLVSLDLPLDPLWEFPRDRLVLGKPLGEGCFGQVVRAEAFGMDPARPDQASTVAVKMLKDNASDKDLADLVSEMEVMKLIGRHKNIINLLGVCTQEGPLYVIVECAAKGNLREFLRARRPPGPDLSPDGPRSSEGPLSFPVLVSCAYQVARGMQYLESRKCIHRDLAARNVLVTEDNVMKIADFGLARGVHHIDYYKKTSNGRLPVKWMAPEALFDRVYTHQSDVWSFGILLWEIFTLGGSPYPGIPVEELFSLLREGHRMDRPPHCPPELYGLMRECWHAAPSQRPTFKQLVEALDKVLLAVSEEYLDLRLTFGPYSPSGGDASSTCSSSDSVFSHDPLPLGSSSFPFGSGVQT
endpoint.name: IC50 (nM)

Use the examples below as a reference point.
# molecule, value.units, endpoint.value
rows = [
    ("COc1cc2nccc(Oc3ccc(NC(=O)NC4CC4)c(F)c3)c2cc1C(N)=O [Comparative Compound 6]", "nM", 4560),
    ("COc1cc2nccc(Oc3ccc(NC(=O)NC4CC4)c(Cl)c3F)c2cc1C(N)=O [Embodiment 1B]", "nM", 92),
    ("COc1cc2nccc(Oc3cc(Cl)c(NC(=O)NC4CC4)cc3F)c2cc1C(N)=O [Comparative Compound 5]", "nM", 137),
    ("COc1cc2nccc(Oc3cc(F)c(NC(=O)NC4CC4)cc3F)c2cc1C(N)=O [Comparative Compound 3]", "nM", 509),
]

I = COc1cc2nccc(Oc3ccc(NC(=O)NC4CC4)c(F)c3F)c2cc1C(N)=O [Comparative Compound 4]
II = COc1cc2nccc(Oc3ccc(NC(=O)NC4CC4)c(Cl)c3)c2cc1C(N)=O [Comparative Compound 1, Lovatinib]
Between I and II , whose measured IC50 reads higher? Your answer should be the label attached to the chosen record.
II

###

- assay.summary: Pharmacokinetic evaluation in rats, intravenous and oral administration
- Format: in vivo, SD rats
- assay.context: rat, plasma, po; male SD rats, intragastric, 5 mg/kg, single
endpoint.name: AUC(0-t) (µM·h)

1 = COc1cc2nccc(Oc3ccc(NC(=O)NC4CC4)c(Cl)c3)c2cc1C(N)=O
2 = COc1cc2nccc(Oc3ccc(NC(=O)NC4CC4)c(Cl)c3F)c2cc1C(N)=O
// select label with min value of measured AUC(0-t) from [ 1 , 2 ] Your answer should be the label attached to the chosen record.
1

###

- assay.summary: Pharmacokinetic evaluation in mice, intravenous and oral administration
- Type: in vivo
- assay.context: mouse, plasma; male Balb/c nude mice, intravenous injection, 1.0 mg/kg, single; read-out: apparent volume of distribution at steady state (Vdss)
endpoint.name: Vd (L/kg)
Numbers only here, please. The scale is L/kg.

I would be grateful if you could share the reported Vd for COc1cc2nccc(Oc3ccc(NC(=O)NC4CC4)c(Cl)c3F)c2cc1C(N)=O .
1.48

###

- assay.summary: Pharmacokinetic evaluation in mice, intravenous and oral administration
- Assay type: in vivo
- assay.context: mouse, plasma; male Balb/c nude mice, intravenous injection, 1.0 mg/kg, single; read-out: plasma clearance (CL)
endpoint.name: clearance (mL/min/kg)
Numbers only here, please. The scale is mL/min/kg.

I would be grateful if you could share the reported clearance for COc1cc2nccc(Oc3ccc(NC(=O)NC4CC4)c(Cl)c3F)c2cc1C(N)=O [Embodiment 1] .
11

###

- test.system: PDGFRα(h) (Homo sapiens)
- Sequence (P16234 24-1089): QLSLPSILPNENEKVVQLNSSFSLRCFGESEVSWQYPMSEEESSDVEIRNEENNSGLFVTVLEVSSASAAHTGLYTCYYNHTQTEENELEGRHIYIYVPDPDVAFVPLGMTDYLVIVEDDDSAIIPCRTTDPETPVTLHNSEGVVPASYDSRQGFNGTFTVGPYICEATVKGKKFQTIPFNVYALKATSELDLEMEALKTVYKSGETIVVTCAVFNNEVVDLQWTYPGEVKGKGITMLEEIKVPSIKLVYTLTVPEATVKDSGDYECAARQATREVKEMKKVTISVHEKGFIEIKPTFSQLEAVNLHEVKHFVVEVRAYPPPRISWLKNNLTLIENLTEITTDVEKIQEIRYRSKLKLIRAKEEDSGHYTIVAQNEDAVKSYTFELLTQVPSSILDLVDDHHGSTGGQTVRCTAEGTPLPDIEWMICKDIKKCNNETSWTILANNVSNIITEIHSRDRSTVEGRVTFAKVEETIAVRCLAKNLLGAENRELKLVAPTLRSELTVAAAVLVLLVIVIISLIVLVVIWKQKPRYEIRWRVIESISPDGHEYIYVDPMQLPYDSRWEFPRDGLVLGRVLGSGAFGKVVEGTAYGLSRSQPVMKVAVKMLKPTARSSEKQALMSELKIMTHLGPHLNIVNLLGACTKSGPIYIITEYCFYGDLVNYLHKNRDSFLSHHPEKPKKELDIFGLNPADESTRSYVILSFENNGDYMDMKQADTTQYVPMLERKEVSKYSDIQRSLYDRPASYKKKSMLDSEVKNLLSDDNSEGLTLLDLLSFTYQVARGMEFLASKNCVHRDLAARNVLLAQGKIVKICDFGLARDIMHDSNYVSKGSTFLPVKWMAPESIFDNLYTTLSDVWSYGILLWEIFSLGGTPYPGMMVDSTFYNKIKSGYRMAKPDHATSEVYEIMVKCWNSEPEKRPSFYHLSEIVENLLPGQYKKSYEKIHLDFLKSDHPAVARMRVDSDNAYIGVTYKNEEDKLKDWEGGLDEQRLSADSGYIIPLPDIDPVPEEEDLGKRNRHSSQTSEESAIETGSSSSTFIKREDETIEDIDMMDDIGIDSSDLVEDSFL
endpoint.name: IC50 (nM)
Numbers only here, please. The scale is nM.

I would be grateful if you could share the reported IC50 for COc1cc2nccc(Oc3ccc(NC(=O)NC4CC4)c(Cl)c3F)c2cc1C(N)=O [Embodiment 1B] .
120
